PROCEDURE SUMMARY: chemical genetic growth profiling, strain panel (AID 1159580);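 further: tested at 20 µM; growth read once vehicle control cultures reached saturation at 30 °C; lower values mean less growth of the strain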
PARTICULARS: S. cerevisiae deletion strains, growth OD, locus YLR330W, strain CHS5
Hit rate of the full screen: of about 5,500 compounds, about 2,000 (36%) were called active. Another 18% or so got no clear call; they are omitted. No stated cut-off is given here; in the data, active means normalized growth mostly below about 0.91 (no sharp cut-off); inconclusive means no clear call, values can overlap the other calls; inactive means mostly above about 0.92. Some of the results follow.
Pick one: active, inactive

These solved cases illustrate the format of a correct answer.
[[record]]
molecule = "Cc1cc(O)c2c(c1)C(=O)c1cccc(O)c1C2=O"
group_label = "inactive"

[[record]]
molecule = "Cn1c(=O)c2c(ncn2C)n(C)c1=O"
group_label = "inactive"

[[record]]
molecule = "Cn1c(=O)c2c(ncn2CCCl)n(C)c1=O"
group_label = "inactive"

[[record]]
molecule = "Cn1c(=O)[nH]c2ncn(C)c2c1=O"
group_label = "inactive"


Hi, do you know how "Oc1cccc2cccnc12" came out in this test?
active

Continue with "COc1ccc(-c2c(O)c3c(OC)c4c(cc3oc2=O)OC(C)(C)C=C4)cc1"
inactive

How about "COc1cc(O)c2c(c1)C(=O)c1cc(C)cc(O)c1C2=O" ?
inactive

Further, for COP(=O)(NC(C)=O)SC (configuration not stated) ?
inactive
